Experiment: pH-dependency of solubility at 37°C
Assay type: physicochemical
Details: 0.1m hcl, pH 1.2, 37°C, 0.1M HCl pH1.2, 24 h
assay readout: solubility at 24 h
Include the unit after the number when you answer.

Given item N#CC[C@H](C1CCCC1)n1cc(-c2ncnc3[nH]ccc23)cn1 [Ruxolitinib besylate, Ruxolitinib benzenesulfonate] , the value recorded as its solubility at 24 h is 9300 µg/mL

====

Test: pH-dependency of solubility at 37°C
Format: physicochemical
Conditions: 50mm kh2po4, pH 6.8, 37°C, 50mM KH2PO4 pH 6.8, 0.5 h
assay readout: solubility at 0.5 h (µg/mL)
Give the value, in units of µg/mL, as a plain number.

Given item N#CC[C@H](C1CCCC1)n1cc(-c2ncnc3[nH]ccc23)cn1 [Ruxolitinib besylate, Ruxolitinib benzenesulfonate] , the value recorded as its solubility at 0.5 h is 6800
